Value source: patent US20160152728A1

- measurement.target: EGFRvIII-Fc fusion antigen (human, UniProt P00533 25-645)
- protocol.text: SPR Biacore T200, EGFRvIII-Fc captured via anti-hu Fc, scFv analyte, 1:1 model;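 note: Multi-cycle kinetics on a CM5 chip in HBS-P+ running buffer, 180 s scFv association then 540 s dissociation, with blank flow cell signals subtracted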
Entries and their measured kON improvement factor vs parental scFv Li3G30 follow.
Write the value in fold as a bare number.

Here are 2 binders together with their reported answers.
For record scFv 475 (scFv, V domains shown, One-chain scFv, His-tagged) VH: EVQLVQSGAEVKKPGESLKISCKGSGYSFTSYWIGWVRQMPGKGLEWMGIIYPDDSDTRYSPSFQGQVTISADKSISTAYLQWSSLKASDTAMYYCARLGSSWTNDAFDIWGQGTLVTVSS VL: SYELTQPPSVSVSPGQTARITCSGDALPKQYAYWYQQKPGQAPVLVIYKDTERPSGIPERFSGSSSGTTVTLTISGVQAEDEADYYCQSVDSSGTYVVFGGGTKLTVL the listed kON improvement factor vs parental scFv Li3G30 is 7.5

For record scFv 473 (scFv, V domains shown, One-chain scFv, His-tagged) VH: EVQLVQSGAEVKKPGESLKISCKGSGYSFSSYWIGWVRQMPGKGLEWMGIIYPGDSDTRYSPSFQGQVTISADKSISTAYLQWSSLKASDTAMYYCARLGSSWTNDAFDIWGQGTLVTVSS VL: SYELTQPPSVSVSPGQTARITCSGHALPSQYAYWYQQKPGQAPVLVIYKDTERPSGIPERFSGSSSGTTVTLTISGVQAEDEADYYCQSVDSSGTSVIFGGGTKLTVL the listed kON improvement factor vs parental scFv Li3G30 is 7.5

Note: attention shifts to another entry.
For record scFv 478 (scFv, V domains shown, One-chain scFv, His-tagged) VH: EVQLVQSGAEVKKPGESLKISCKGSGYSFNSYWIGWVRQMPGKGLEWMGIIYPGDEDTRYSPSFQGQVTISADKSISTAYLQWSSLKASDTAMYYCARLGSSWTNDAFDIWGQGTLVTVSS VL: SYELTQPPSVSVSPGQTARITCSGDALPKQYAYWYQQKPGQAPVLVIYKDTERPSGIPERFSGSSSGTTVTLTISGVQAEDEADYYCQSVDPSGTYVVFGGGTKLTVL the listed kON improvement factor vs parental scFv Li3G30 is 8.8
